target: SARS-CoV-2 spike receptor-binding domain (RBD), recombinant (SARS-CoV-2, UniProt P0DTC2 319-541); assay: SPR, Carterra LSA
Recorded Kd values for a group of binders are listed next.
Return type: number; implicit unit nM.

2-5D9 (antibody, V domains shown) VH: QVQLQESGPGLVKPSETLSLTCTVSGGSISSYYWSWIRQPPGKGLEWIGYIYYTGSTNYNPSLKSRVTISVDTSKNQFSLKLRSVTAADTAVYYCAGTYDSNLLDPWGQGTLVTVSS VL: DIQMTQSPSSLSASVGDRVTITCRASQGISNSLAWYQQKPGKAPKLLLYDVFRFESGVPSRFSGSGSGTDYTLTISSLQPDDFATYYCQQYYSTPYTFGQGTKVEIK ... 0.544
2-5C4 (antibody, V domains shown) VH: EVQLVESGGGLIQPGGSLRLSCAASGLTVSSNYMNWVRQAPGKGLEWVSVIYAGGSTFYADSVKGRFTISRDNSKNTLYLQMNSLRAEDTAFYYCARESYGMDVWGQGTTVTVSS VL: EIVLTQSPATLSLSPGERATLSCRASQSISSSYLAWYQQKPGQAPRLLIYGASSRATGIPDRFSGSGSGTDFTLTISRLEPEDFAVYYCQQYGSLYTFGQGTKVEIK ... 0.026
2-5F8 (antibody, V domains shown) VH: QVQLVQSGAEVKKPGASVKVSCKASGYTFTNYYMHWVRQAPGQGLEWMGVINPSGASTSYAQKFQGRVTMTRDTSTSTVYMELSSLRSEDTAVYYCASWGGNIPLYYYYGMDVWGQGTTVTVSS VL: QSALTQPPSASGSPGQSVTISCTGTSSDVGGYNYVSWYQQHPGKAPKLMIYEVSKRPSGVPDRFSGSKAGNTASLTVSGLQAEDEADYYCTSYAGSNIWVFGGGTKLTVL ... 1.5

Look up Kd of 2-4G1 (antibody, V domains shown) VH: EVQLVQSGAEVKRPGASVKVSCKASGYTFTSYGLSWVRQAPGQGLEWMGWINTYNGHTNYAQKVQGRVTLTTDTSTSTAYMELRSLRSDDTAVYYCARVESVYYGSGTCDPWGQGTLVTVSS VL: DIQMTQSPSSLSASVGDRVTITCRASQSISSYLNWYQQKPGKAPKLLIYIASSLQSGVPSRFSGSGSGTDFTLTISSLQPEDFATYYCHQSYSSPHTFGQGTKLEIK and report it.
14.4
